- METHOD_SUMMARY: soluble fraction after stress (log2 fold change); higher = more stays soluble; pooled small domains, quantitative proteomics
- APPLIED_CONDITIONS: stress: pH 4
RECORDED_METRIC: soluble fraction (log2)

Using known records, supply soluble fraction (log2) for HMKPPTIELSYSEFIELVERGKVSKVIFSSDNYTLKGETVNGENFETVRPPFLEDNLSEILTIHKVPVSSE -0.785

Using known records, supply soluble fraction (log2) for HMEDQFWQNRAEMALASARRAGRIVTYAEMADAADIPAPQRIHKLTLWLEATMRQDHASGQPLRAALV -0.0778

Using known records, supply soluble fraction (log2) for HMGLAGVQSDVKVSFDGDLLVVTSDIARSFNLFAVDGRLIRSVNLIAGRNEIRGLERGFYLAEKQKIFV -1.36

Using known records, supply soluble fraction (log2) for HMGGGFLVPSLVGKSLEEARSLSELRGFKLEVGDYVISSEYPAGRVTRQNPANGAKGQEGDVIKVEVSS 0.153

Using known records, supply soluble fraction (log2) for HMSQLVTGVLRNLNDISEKIAAGKAVPEMLGRLENMQQMIANLKGNEGLIKSISILTRSAQDALR -0.0398

Using known records, supply soluble fraction (log2) for HMSNEVSYSDFVRSVESDEVNAVTLDGEQIRFVGNDGQTYSVIKPADAQITQLLIDNNVTVRAEQQ -0.0566

* * *

- METHOD_SUMMARY: soluble fraction after stress (log2 fold change); higher = more stays soluble; pooled small domains, quantitative proteomics
- APPLIED_CONDITIONS: stress: pH 4
RECORDED_METRIC: soluble fraction (log2)
Give only the figure.

Using known records, supply soluble fraction (log2) for HMGIGSTLTDGVRVYASDDEIVVNAPAESDVRIFNAGGAQLYAGRVADVRVAVAKGLYVVTVDGRSTKITV 0.217

Using known records, supply soluble fraction (log2) for HMKMPNGYGSITKLSGKRRKPWRVRKTAGWELDAKTQKLKQTYINIGYYETRADAMSALVSYNEDP -0.151

Using known records, supply soluble fraction (log2) for HMDDKVGKVFNYVQEKILTGEWDIGDKITPEISLSKELGVSRSVVREAIKKFVALNILSRTQGGGTYVNNL -0.621

Using known records, supply soluble fraction (log2) for HMSTKLLEVNIFDDSKWVNKTIMDSDIPEDILIVMIKRGDEVIVPKGSTIINKGDILVLSANNFDNLLN -1.97

Using known records, supply soluble fraction (log2) for HMSDHYEVLGVDRNATDDQIKKAYRRLARELHPDVNDAPESQEKFKLVTHAYEVLSDPDERRKYDMG 0.056

Using known records, supply soluble fraction (log2) for HMNPGAYQVKAGEGLIGLSRRYNVPVDVLASVNNLNTTSSLRVGQTITIPTAAQVNRITQQAQ 0.254

Using known records, supply soluble fraction (log2) for HMITETIGANIKTLRDKFRMSQQDLASKMNTARPVISNWENGKTEPSSSQLLKLAKIFDTSTDKILGNV 0.345

Using known records, supply soluble fraction (log2) for HMPSGRIRWFDAKKGYGFIAGDDGKDVFLPQTALPQGVRNPRKGAKVEYSVIEGNRGQVAMGVTMV 0.0307

Using known records, supply soluble fraction (log2) for HMGPPLISLDDGLAKGFGVGVGDTLTINILGRRITATIASLREIDWQSLRFDFAVVLSPGVLEGA 0.063

Using known records, supply soluble fraction (log2) for HMYLHSEFSPVTGQELHMKYDDSSTEEDPVMLVEGKDIQGNDFVKKIHLNDVDPENATPAEMTALRVHL -0.507

Using known records, supply soluble fraction (log2) for HMSVRPMVEILRVVGSPSPVWVTWARNRAAWLYETGIRPQQRLRMADGTEVLIRLVGEFAHILVVGG 0.0642

Using known records, supply soluble fraction (log2) for HMNNKVAVKSGYYFEIFNKEEIPTTLAKTKQKVKINNIQYDLYQGMSLDDERKIDDMFGDRMGYSIDDY -1.9

Using known records, supply soluble fraction (log2) for HMEMLQRFIFLENVSSTQVESAIKELHPNLNLKRVKLSFPGADTVLLKGPKQDLELAEELIRHLDRSE -0.609

Using known records, supply soluble fraction (log2) for HMRQDEKTLLYWIGAQVKREGKLIKTSTAQYLVEKTGTDMENLEKELEKLFAYTLDEKEITPAAIDEI -1.21

* * *

- METHOD_SUMMARY: soluble fraction after stress (log2 fold change); higher = more stays soluble; pooled small domains, quantitative proteomics
- APPLIED_CONDITIONS: stress: pH 4
Classify by measured soluble fraction (log2): satisfied if it is equal to or exceeds -0.6, not satisfied if it is smaller.

Could you verify whether the entry HMYIDLHEIWKSLTDEEQTVVKLLETEPAHVDTLIENSQIPASRILATLTLLEVRGIVKRLPGRMFSLAD shows soluble fraction (log2) of no less than -0.6? satisfied

Could you verify whether the entry HMEKYIVNQEEQGKRLDIYVVNKSSELTRTAVQRLIEQEHILVNGRKQKASYKVLEGDIITIERV shows soluble fraction (log2) of no less than -0.6? not satisfied

Could you verify whether the entry HMKQQAYEQGKAAYQSGDWLRAVTQLGQVKEAGEKNGEVDHLLGNAYMKLGQFESAAYAYNSALEDVA shows soluble fraction (log2) of no less than -0.6? satisfied

Could you verify whether the entry HMALSVRNRMSDLLRMLGDGEFHRFENLFSLEEGRHGIVVTFLAMLELAKEQLVEISQGESLAPIYLKSLA shows soluble fraction (log2) of no less than -0.6? satisfied

Could you verify whether the entry HMVPFISVTPTSLSFAKGGESKTVDIEASGAFSVGKVPTGFNLEVVNGRITITADANTGAARNGSVEFILA shows soluble fraction (log2) of no less than -0.6? satisfied

Could you verify whether the entry HMKNAMTDIYLEEIKKILTKNEFLVYTLRELNNFSVQFITDNYDLSEKTIYNSVYRAKKKIDRHFT shows soluble fraction (log2) of no less than -0.6? not satisfied

Could you verify whether the entry HMSDAIQLEQKIGLEAIEWYLALSEQTDDKLLYQQWQSWLAADPQHQLAWSRIEQVNHGLNTL shows soluble fraction (log2) of no less than -0.6? not satisfied

* * *

- METHOD_SUMMARY: soluble fraction after stress (log2 fold change); higher = more stays soluble; pooled small domains, quantitative proteomics
- APPLIED_CONDITIONS: stress: pH 4
Classify by measured soluble fraction (log2): Fulfilled if it is equal to or exceeds 0.07, Not fulfilled if it is smaller.

Could you verify whether the entry HMTSVRVPVKKEIWFWAIKESQRDLNEILARFPKMDKWINQEENPTFNQLEKVAKFLRVPFGYMFLDKPPK shows soluble fraction (log2) of no less than 0.07? Fulfilled

Could you verify whether the entry HMKNETFAITSEDAGKRLDVWLTNILGDYSRSYVERLVEQGNVTVGGKTVKAGYKLKAGDSVQVSIPGPK shows soluble fraction (log2) of no less than 0.07? Fulfilled

Could you verify whether the entry HMTYTPRAGSLASQVIGFFRHNPDEELLLDDITDKFDATRGNIHTLLAEAVRFKLLARYRNDDGDYVYKPG shows soluble fraction (log2) of no less than 0.07? Not fulfilled

Could you verify whether the entry HMGSIGAMLSSPELYGKLATNPATRGFLSQPDFIAMLTDVQKNPDKFGSYMSDPRMMQVLSVALG shows soluble fraction (log2) of no less than 0.07? Not fulfilled

Could you verify whether the entry HMTSNIIIVPNVVGMTKEQATAALAAAGLNIKLSGVETTDTAAVAVKQKPSANTKVEEGSVVTVEFDLK shows soluble fraction (log2) of no less than 0.07? Not fulfilled

Could you verify whether the entry HMRMDKHLWLSLLRLINEGSAEELQTKKDELLQSLERLRITRGPVRGDVLRVVRLIDEELVSRLHLDQR shows soluble fraction (log2) of no less than 0.07? Not fulfilled

Could you verify whether the entry HMLNMTLGDRIRSRREELRMSQEELATRLGYKSRSTIAKIESGENDLTQSKIVAFAEALSTTARWLLDY shows soluble fraction (log2) of no less than 0.07? Not fulfilled

Could you verify whether the entry HMDATIGGFKITDSAIYSGVKNNVNAGVRGTYIDKDGQIAFGDSNSYLKYYKDTDGKWKLEVSASSVKF shows soluble fraction (log2) of no less than 0.07? Not fulfilled

Could you verify whether the entry HMAPDYYALLGVPRNATTAEVRKAFRGKALEQHPDRGGDEESFRLLSKAYDVLSDSERRKYYDRTG shows soluble fraction (log2) of no less than 0.07? Fulfilled

Could you verify whether the entry HMFWVESDVDFVDKTSAHNAIKENERVIGMYISYRLNGTWTTEQYVGIDTSKDNWENPDNWNIL shows soluble fraction (log2) of no less than 0.07? Not fulfilled

Could you verify whether the entry HMDKLEKRILDYLLQKSAIDGSTILKISHREMAMDLGTAREVVTRILKKLETGGFVRQGENYLEILK shows soluble fraction (log2) of no less than 0.07? Not fulfilled

These measurements were taken from the domain aggregation screens of Martell et al. (2025).
